Tested on: E.coli
Assay type: cell-based, Escherichia coli
Description: This assay was used to determine the minimum concentration of a test compound (i.e., an antimicrobial peptide described herein) able to inhibit the growth of a bacterial strain of interest. […] After incubation, the MIC of each test compound was determined by measuring the OD600 of each well using a plate reader. […]
VALUE_KIND: MIC E. coli

Worked examples follow.
CC[C@H](C)[C@H](NC(=O)[C@@H](Cc1ccc(Cl)cc1)NC)C(=O)N[C@@H](CO)C(=O)N[C@H](CCC(N)=O)C(=O)N[C@@H](C(=O)N[C@H](C(=O)N[C@@H](CO)C(=O)N[C@H]1C(=O)N[C@@H](C)C(=O)N[C@@H](CCCCNC(=N)N)C(=O)N[C@@H]([C@@H](C)CC)C(=O)O[C@H]1C)[C@@H](C)CC)[C@@H](C)CC [Compound 70]
>16 mg/L
CC[C@H](C)[C@H](NC(=O)[C@@H](Cc1ccc2ccccc2c1)NC)C(=O)N[C@@H](CO)C(=O)N[C@H](CCC(N)=O)C(=O)N[C@@H](C(=O)N[C@H](C(=O)N[C@@H](CO)C(=O)N[C@H]1C(=O)N[C@@H](C)C(=O)N[C@@H](CCCCNC(=N)N)C(=O)N[C@@H]([C@@H](C)CC)C(=O)O[C@H]1C)[C@@H](C)CC)[C@@H](C)CC [Compound 75]
>16 mg/L
CC[C@H](C)[C@H](NC(=O)[C@@H](Cc1ccccc1)NC)C(=O)N[C@@H](CO)C(=O)N[C@H](CCC(N)=O)C(=O)N[C@@H](C(=O)N[C@H](C(=O)N[C@@H](CO)C(=O)N[C@H]1C(=O)N[C@@H](C)C(=O)N[C@@H](CCCNC(=N)N)C(=O)N[C@@H]([C@@H](C)CC)C(=O)O[C@H]1C)[C@@H](C)CC)[C@@H](C)CC [Arg10-teixobactin]
>16 mg/L
CC[C@H](C)[C@H](NC(=O)[C@@H](Cc1ccc(OC)cc1)NC)C(=O)N[C@@H](CO)C(=O)N[C@H](CCC(N)=O)C(=O)N[C@@H](C(=O)N[C@H](C(=O)N[C@@H](CO)C(=O)N[C@H]1C(=O)N[C@@H](C)C(=O)N[C@@H](CCCCNC(=N)N)C(=O)N[C@@H]([C@@H](C)CC)C(=O)O[C@H]1C)[C@@H](C)CC)[C@@H](C)CC [Compound 74]
>16 mg/L

stdin: Query: MIC E. coli; subject: CC[C@H](C)[C@H](NC(=O)[C@@H](Cc1ccccc1)NC)C(=O)N[C@@H](Cc1c[nH]c2ccccc12)C(=O)N[C@H](CCC(N)=O)C(=O)N[C@@H](C(=O)N[C@H](C(=O)N[C@@H](CO)C(=O)N[C@H]1C(=O)N[C@@H](C)C(=O)N[C@@H](CCCCNC(=N)N)C(=O)N[C@@H]([C@@H](C)CC)C(=O)O[C@H]1C)[C@@H](C)CC)[C@@H](C)CC [Compound 2]
stdout: >32 mg/L

stdin: Then what about the compound CC[C@H](C)[C@H](NC(=O)[C@@H](Cc1ccccc1)NC)C(=O)N[C@@H](CO)C(=O)N[C@H](CCC(N)=O)C(=O)N[C@@H](C(=O)N[C@H](C(=O)N[C@@H](CO)C(=O)N[C@H]1C(=O)N[C@@H](C)C(=O)N[C@@H](CCCCNCc2ccccc2)C(=O)N[C@@H]([C@@H](C)CC)C(=O)O[C@H]1C)[C@@H](C)CC)[C@@H](C)CC [Compound 71] ?
stdout: >16 mg/L
